IC50 values recorded for Avi-tagged FL MALT-1 (Homo sapiens (Human))
Recorded metric: IC50

> print(dat)
                                   compound  recorded.metric  recorded.measurement
1  COc1ccc2cnn(C)c2c1NS(=O)(=O)c1cnn(-c2cc(C3(F)COC3)ccn2)c1             IC50              ≤ 400 nM
2  COc1ncc2cnn(C)c2c1NS(=O)(=O)c1cnn(-c2cc(N3CCCCCC3)ccn2)c1             IC50             > 2500 nM
3  COc1ncc2cnn(C)c2c1NS(=O)(=O)c1cnn(-c2cc(C(C)O)ccn2)c1 (single isomer, unassigned) [Compound I-292]             IC50        400 to 1000 nM
4  COc1ccc2[nH]nc(C)c2c1NS(=O)(=O)c1cnn(-c2cc(C(F)(F)F)ccn2)c1             IC50              ≤ 400 nM

----------
Observed pIC50, system Avi-tagged FL MALT-1 (Homo sapiens (Human), UniProt Q9UDY8).
pIC50: −log10 of the molar value.
Recorded metric: pIC50

> print(dat)
                                   molecule  recorded.metric  recorded.measurement
1  Cn1ncc2cccc(NS(=O)(=O)c3cnn(-c4cc(C5(F)CC(F)C5)ccn4)c3)c21 (stereo not drawn) [Compound I-376]            pIC50                < 5.60
2  CCC(CC)(OC)c1ccnc(-n2cc(S(=O)(=O)Nc3c(OC)ccc4cnn(C)c34)cn2)c1            pIC50                ≥ 6.40
3  CCc1ccc2cnn(C)c2c1NS(=O)(=O)c1cnn(-c2ccc(OC)cn2)c1            pIC50          6.00 to 6.40
4  Cn1nc2c(NS(=O)(=O)c3cnn(-c4cc(C(F)(F)F)ccn4)c3)cccc2c1Cl            pIC50                < 5.60
5  COc1ccc2cnn(C)c2c1NS(=O)(=O)c1cnn(-c2ccc(C(F)(F)F)cn2)c1            pIC50                ≥ 6.40
6  Cn1ncc2cccc(NS(=O)(=O)c3cnn(-c4cc(C5CCOC5)ccn4)c3)c21 (stereo not drawn)            pIC50                < 5.60
7  COc1ccc2cnn(C)c2c1NS(=O)(=O)c1cnn(-c2cc(C(F)(F)F)ccn2)c1C            pIC50                ≥ 6.40
8  Cn1ncc2cccc(NS(=O)(=O)c3cnn(-c4cc(C(F)(F)F)c(Cl)cn4)c3)c21            pIC50          6.00 to 6.40
9  COCC(F)(F)c1ccnc(-n2cc(S(=O)(=O)Nc3cccc4cnn(C)c34)cn2)c1            pIC50                < 5.60

----------
// reported IC50 for each item listed
system: NF-kB reporter in Jurkat cells; test: NF-kB reporter assay in Jurkat cells stimulated with aCD3/aCD28/PMA; format: cell-based; conditions: Homo sapiens; Jurkat cells, 1 hr compound pre-incubation, aCD3/aCD28/PMA stimulation 4 hr, One-Glo readout; read-out: NF-kB Reporter Assay IC50
Recorded metric: IC50

> print(dat)
                         structure.as.smiles                   system.tested  recorded.metric  recorded.measurement
 1  Cn1ncc2ccc(F)c(NS(=O)(=O)c3cnn(-c4cc(C(F)(F)F)ccn4)c3)c21  NF-kB reporter in Jurkat cells             IC50        400 to 1000 nM
 2  COc1ccc2cnn(C)c2c1NS(=O)(=O)c1cnn(-c2cc([C@H](C)N3CCCCC3)ccn2)c1  NF-kB reporter in Jurkat cells             IC50              < 400 nM
 3  Cn1ncc2cccc(NS(=O)(=O)c3cnn(-c4cc(N5CCC(C)(C)C5)ccn4)c3)c21  NF-kB reporter in Jurkat cells             IC50              < 400 nM
 4  Cn1ncc2cccc(NS(=O)(=O)c3cnn(-c4cc(C5(O)COC5)ccn4)c3)c21  NF-kB reporter in Jurkat cells             IC50              < 400 nM
 5  Cn1ncc2cccc(NS(=O)(=O)c3cnn(-c4cc(C5(O)CCOCC5)ccn4)c3)c21  NF-kB reporter in Jurkat cells             IC50        400 to 1000 nM
 6  Cn1ncc2cccc(NS(=O)(=O)c3cnn(-c4cc(N5CCOC5=O)ccn4)c3)c21  NF-kB reporter in Jurkat cells             IC50              < 400 nM
 7  Cc1n[nH]c2cccc(NS(=O)(=O)c3cnn(-c4cc(C5(O)CCC5)ccn4)c3)c12  NF-kB reporter in Jurkat cells             IC50              < 400 nM
 8  COC[C@@](C)(O)c1ccnc(-n2cc(S(=O)(=O)Nc3cccc4cnn(C)c34)cn2)c1  NF-kB reporter in Jurkat cells             IC50       1000 to 2500 nM
 9  COC[C@@H](O)c1ccnc(-n2cc(S(=O)(=O)Nc3cccc4cnn(C)c34)cn2)c1  NF-kB reporter in Jurkat cells             IC50        400 to 1000 nM
10  COc1ccc2cnn(C)c2c1NS(=O)(=O)c1cnn(-c2cc([C@@H](C)N3CCCCC3)ccn2)c1  NF-kB reporter in Jurkat cells             IC50        400 to 1000 nM
11  C[C@@H]1COC(=O)N1c1ccnc(-n2cc(S(=O)(=O)Nc3cccc4cnn(C)c34)cn2)c1  NF-kB reporter in Jurkat cells             IC50              < 400 nM
12  Cc1n[nH]c2cccc(NS(=O)(=O)c3cnn(-c4ccc(C(F)(F)F)cn4)c3)c12  NF-kB reporter in Jurkat cells             IC50              < 400 nM
13  Cc1ccnc(-n2cc(S(=O)(=O)Nc3cccc4[nH]nc(C)c34)cn2)c1  NF-kB reporter in Jurkat cells             IC50              < 400 nM
14  COc1ccc2cn(C)nc2c1NS(=O)(=O)c1cnn(-c2ccnc(C(F)(F)F)c2)c1  NF-kB reporter in Jurkat cells             IC50             > 2500 nM
15  Cc1n[nH]c2cccc(NS(=O)(=O)c3cnn(-c4cc(C5CC5)ccn4)c3)c12  NF-kB reporter in Jurkat cells             IC50              < 400 nM
16  Cn1ncc2cccc(NS(=O)(=O)c3cnn(-c4cc(N5CC[C@@H](F)C5)ccn4)c3)c21  NF-kB reporter in Jurkat cells             IC50              < 400 nM
17  Cc1n[nH]c2cccc(NS(=O)(=O)c3cnn(-c4ccnc(C(F)(F)F)c4)c3)c12  NF-kB reporter in Jurkat cells             IC50             > 2500 nM
18  Cn1ncc2cccc(NS(=O)(=O)c3cnn(-c4cc([C@]5(O)C[C@H](C)C5)ccn4)c3)c21  NF-kB reporter in Jurkat cells             IC50              < 400 nM
19  COc1ncc2cnn(C)c2c1NS(=O)(=O)c1cnn(-c2cc(N3CCC(F)(F)C3)ccn2)c1  NF-kB reporter in Jurkat cells             IC50              < 400 nM
20  CC(=O)N1CC(O)(c2ccnc(-n3cc(S(=O)(=O)Nc4cccc5cnn(C)c45)cn3)c2)C1  NF-kB reporter in Jurkat cells             IC50             > 2500 nM
21  COC1(c2ccnc(-n3cc(S(=O)(=O)Nc4cccc5cnn(C)c45)cn3)c2)CN(C(C)=O)C1  NF-kB reporter in Jurkat cells             IC50       1000 to 2500 nM
22  Cc1ncn2cccc(NS(=O)(=O)c3cnn(-c4cc(C(F)(F)F)ccn4)c3)c12  NF-kB reporter in Jurkat cells             IC50              < 400 nM

The origin of these recorded values is patent US20240150321A1.
